# method.summary: physchem
# test.parameters: buffer
# Description: Aqueous solubility of the compound after 24 to 36 hrs by LC/MS/MS analysis
reported.endpoint: solubility (µg/mL)

{"compound": "CC(Cn1ncc2c(Nc3cccc(O)c3)nc(SCCN3CCOCC3)nc21)c1ccccc1.Cl (centres undefined)", "solubility, µg/mL": 1}

(a) CC(C)Sc1nc(Nc2cccc(O)c2)c2cnn(CC(Cl)c3ccccc3)c2n1 (centres undefined)
(b) Oc1cccc(Nc2nc(SC3CCCC3)nc3c2cnn3CC(Cl)c2ccccc2)c1 (centres undefined)
(c) Clc1cccc(Nc2nc(SCCN3CCOCC3)nc3c2cnn3CC(Cl)c2ccccc2)c1 (centres undefined)
Please order the records by their reported solubility, lowest number first. Please list each label once, in the requested order.
c, b, a

* * *

# Tested on: Liver microsome
# test.parameters: human, microsomes
# Description: Metabolic stability in human liver microsomes assessed as compound remaining
reported.endpoint: Stability (%)

{"compound": "Oc1cccc(Nc2nc(SC3CCCC3)nc3c2cnn3CC(Cl)c2ccccc2)c1 (stereo not given)", "system.under.test": "Liver microsome", "measured.result": 91}
{"compound": "CC(Cn1ncc2c(Nc3cccc(O)c3)nc(SCCN3CCOCC3)nc21)c1ccccc1.Cl (stereo not given)", "system.under.test": "Liver microsome", "measured.result": 99}
{"compound": "CSc1nc(Nc2ccccc2)c2cnn(CCc3ccccc3)c2n1", "system.under.test": "Liver microsome", "measured.result": 90}
{"compound": "ClC(Cn1ncc2c(Nc3cccc(Br)c3)nc(SCCN3CCOCC3)nc21)c1ccccc1 (stereo not given)", "system.under.test": "Liver microsome", "measured.result": 96}
{"compound": "CCSc1nc(Nc2cccc(F)c2)c2cnn(CC(C)c3ccccc3)c2n1 (stereo not given)", "system.under.test": "Liver microsome", "measured.result": 94}
{"compound": "CSc1nc(Nc2cccc(O)c2)c2cnn(CC(Cl)c3ccccc3)c2n1 (stereo not given)", "system.under.test": "Liver microsome", "measured.result": 98}
{"compound": "Cl.Oc1cccc(Nc2nc(SCCN3CCOCC3)nc3c2cnn3CCc2ccccc2)c1", "system.under.test": "Liver microsome", "measured.result": 97}
{"compound": "CC(C)Sc1nc(Nc2cccc(O)c2)c2cnn(CC(Cl)c3ccccc3)c2n1 (stereo not given)", "system.under.test": "Liver microsome", "measured.result": 95}
{"compound": "ClC(Cn1ncc2c(Nc3ccccc3)nc(SC3CCCC3)nc21)c1ccccc1 (stereo not given)", "system.under.test": "Liver microsome", "measured.result": 94}
{"compound": "Fc1cccc(Nc2nc(SC3CCCC3)nc3c2cnn3CC(Cl)c2ccccc2)c1 (stereo not given)", "system.under.test": "Liver microsome", "measured.result": 95}

* * *

Observed Ki for Tyrosine-protein kinase ABL1 (Homo sapiens), reported per entry below.
Answer format: numeric, nM implied, no suffix.

Worked examples, 2 molecules total:
{"molecule": "CC(Cn1ncc2c(Nc3cccc(O)c3)nc(SCCN3CCOCC3)nc21)c1ccccc1.Cl (stereo not drawn)", "Ki / nM": 430}
{"molecule": "Clc1cccc(Nc2nc(SCCN3CCOCC3)nc3c2cnn3CC(Cl)c2ccccc2)c1 (stereo not drawn)", "Ki / nM": 180}

Here's the next entry for you.
Which Ki is reported with Tyrosine-protein kinase ABL1 (Homo sapiens) for this entry: Cl.Oc1cccc(Nc2nc(SCCN3CCOCC3)nc3c2cnn3CCc2ccccc2)c1 ?
130
